Cited source for all entries: patent US8129389B2

- test.target: human V1b receptors (Homo sapiens, UniProt P47901)
- Construct: expressed in transfected cells
- Sequence (P47901 1-424): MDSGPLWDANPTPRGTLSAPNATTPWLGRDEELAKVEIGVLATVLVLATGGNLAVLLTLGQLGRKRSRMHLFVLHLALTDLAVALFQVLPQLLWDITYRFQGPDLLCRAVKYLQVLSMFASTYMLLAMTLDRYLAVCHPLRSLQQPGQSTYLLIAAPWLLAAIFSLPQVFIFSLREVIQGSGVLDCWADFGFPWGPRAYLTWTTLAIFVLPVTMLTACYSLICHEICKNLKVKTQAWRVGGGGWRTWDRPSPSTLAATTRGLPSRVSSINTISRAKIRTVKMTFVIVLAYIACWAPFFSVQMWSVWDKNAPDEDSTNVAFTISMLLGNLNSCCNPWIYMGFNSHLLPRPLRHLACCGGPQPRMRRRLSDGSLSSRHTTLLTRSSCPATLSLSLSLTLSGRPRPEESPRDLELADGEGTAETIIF
- assay.overview: Vasopressin V1b receptor binding assay
- test.context: membranes from CHO-K1 cells, 3H-AVP displacement; read-out: measured Ki values, affinities for the vasopressin V1b receptor
measured.endpoint: Ki

Measured Ki of CCOc1ccccc1C1(NC(=O)N2CCN(c3ccc(C#N)cn3)CC2)C(=O)N(S(=O)(=O)c2ccccc2OC)c2ccc(C#N)cc21 (stereo not drawn) [Example 45] : < 100 nM

So, CCOc1ccccc1C1(NC(=O)N2CCN(c3ccncc3)CC2)C(=O)N(S(=O)(=O)c2ccc(C#N)cc2)c2ccc(C#N)cc21 (stereo not drawn) [Example 14] ? Its Ki was < 100 nM

// CCOc1ccccc1C1(OC(=O)N2CCN(c3nccs3)CC2)C(=O)N(S(=O)(=O)c2ccc(OC)cc2OC)c2ccc(C#N)cc21 (stereo not drawn) [Example 30] : Ki value = < 100 nM

====

- test.target: human V1b receptors (Homo sapiens)
- Construct: expressed in transfected cells
- assay.overview: Vasopressin V1b receptor binding assay
- test.context: membranes from CHO-K1 cells, 3H-AVP displacement; read-out: measured Ki values, affinities for the vasopressin V1b receptor
measured.endpoint: Ki

Record CCOc1ccccc1C1(NC(=O)N2CCN(c3ccncc3)CC2)C(=O)N(S(=O)(=O)c2ccccc2)c2ccc(C#N)cc21 (stereo not shown) . Reported Ki: < 100 nM

The recorded Ki for entry CCOc1ccccc1C1(OC(=O)N2CCN(c3ccncc3)CC2)C(=O)N(S(=O)(=O)c2ccc(F)cc2)c2ccc(C#N)cc21 (stereo not shown) equals < 100 nM

Quick note, Ki for CCOc1ccccc1C1(OC(=O)N2CCN(c3ccncc3)CC2)C(=O)N(S(=O)(=O)c2ccc([N+](=O)[O-])cc2)c2ccc(C#N)cc21 (stereo not shown) landed at < 100 nM

Kindly note the recorded Ki for CCOc1ccccc1C1(NC(=O)N2CCN(c3ccncc3)CC2)C(=O)N(S(=O)(=O)c2ccc(OC)cc2OC)c2ccc(C#N)cc21 (stereo not shown) , which is < 100 nM

Reported Ki for CCOc1ccccc1C1(OC(=O)N2CCN(c3nccs3)CC2)C(=O)N(S(=O)(=O)c2ccc(C#N)cc2)c2ccc(C#N)cc21 (stereo not shown) was < 100 nM

Form: compound = CCOc1ccccc1C1(NC(=O)N2CCN(c3ccncc3)CC2)C(=O)N(S(=O)(=O)c2ccc(F)cc2F)c2ccc(C#N)cc21 (stereo not shown) ; Ki = < 100 nM

Recorded result, CCOc1ccccc1C1(OC(=O)N2CCN(c3ncccn3)CC2)C(=O)N(S(=O)(=O)c2ccc(OC)cc2OC)c2ccc(C#N)cc21 (stereo not shown) , Ki: < 100 nM

CCOc1ccccc1C1(NC(=O)N2CCN(c3ccc(C#N)cn3)CC2)C(=O)N(S(=O)(=O)c2ccc(C#N)cc2)c2ccc(C#N)cc21 (stereo not shown) yielded Ki of < 100 nM

GET /value?item= CCOc1ccccc1C1(NC(=O)N2CCN(c3ccc(C#N)cn3)CC2)C(=O)N(S(=O)(=O)c2ccccc2)c2ccc(C#N)cc21 (stereo not shown) &field=Ki returns < 100 nM

Measured Ki of CCOc1ccccc1C1(NC(=O)N2CCN(c3ncccn3)CC2)C(=O)N(S(=O)(=O)c2ccc(OC)cc2OC)c2ccc(C#N)cc21 (stereo not shown) : < 100 nM

So for CCOc1ccccc1C1(OC(=O)N2CCN(c3ccncc3)CC2)C(=O)N(S(=O)(=O)c2ccccc2)c2ccc(C#N)cc21 (stereo not shown) , the logged Ki turned out to be < 100 nM

Quick note, Ki for CCOc1ccccc1C1(NC(=O)N2CCN(c3ccc(C#N)cn3)CC2)C(=O)N(S(=O)(=O)c2ccc(Cl)cc2)c2ccc(C#N)cc21 (stereo not shown) landed at < 100 nM

For record CCOc1ccccc1C1(NC(=O)N2CCN(c3cnccn3)CC2)C(=O)N(S(=O)(=O)c2ccc(OC)cc2OC)c2ccc(C#N)cc21 (stereo not shown) the listed Ki is < 100 nM

====

For each record, write down the corresponding Ki.
- test.target: human V1b receptors (Homo sapiens)
- Construct: expressed in transfected cells
- assay.overview: Vasopressin V1b receptor binding assay
- test.context: Table 1; human vasopressin V1b receptor affinity; read-out: V1b Ki

Per the record, CCOc1ccccc1C1(OC(=O)N2CCN(c3ccncc3)CC2)C(=O)N(S(=O)(=O)c2ccc(F)cc2)c2ccc(C#N)cc21 (stereo not drawn) has Ki of 10 to 100 nM

Entry CCOc1ccccc1C1(NC(=O)N2CCN(c3ccc(C#N)cn3)CC2)C(=O)N(S(=O)(=O)c2ccccc2OC)c2ccc(C#N)cc21 (stereo not drawn) , Ki reported as 10 to 100 nM

Ki reading for CCOc1ccccc1C1(OC(=O)N2CCN(c3ccncc3)CC2)C(=O)N(S(=O)(=O)c2ccc([N+](=O)[O-])cc2)c2ccc(C#N)cc21 (stereo not drawn) : < 10 nM

Field Ki (entry CCOc1ccccc1C1(OC(=O)N2CCN(c3cnccn3)CC2)C(=O)N(S(=O)(=O)c2ccc(OC)cc2OC)c2ccc(C#N)cc21 (stereo not drawn) ) reads 10 to 100 nM

// Ki lookup, compound = CCOc1ccccc1C1(OC(=O)N2CCN(c3nccs3)CC2)C(=O)N(S(=O)(=O)c2ccc(OC)cc2OC)c2ccc(C#N)cc21 (stereo not drawn) , result: < 10 nM

Reported Ki of CCOc1ccccc1C1(NC(=O)N2CCN(c3ccncc3)CC2)C(=O)N(S(=O)(=O)c2ccc(F)cc2F)c2ccc(C#N)cc21 (stereo not drawn) : 10 to 100 nM

====

- test.target: human V1b receptors (Homo sapiens)
- Construct: expressed in transfected cells
- assay.overview: Vasopressin V1b receptor binding assay
- test.context: Table 1; human vasopressin V1b receptor affinity; read-out: V1b Ki
pKi: −log10 of the molar value.
Provide the reported pKi of each item.

Please fill in: pKi reported for CCOc1ccccc1C1(NC(=O)N2CCN(c3ccncc3)CC2)C(=O)N(S(=O)(=O)c2ccccc2)c2ccc(C#N)cc21 (stereo not shown) = 7.00 to 8.00

pKi for CCOc1ccccc1C1(OC(=O)N2CCN(c3ccncc3)CC2)C(=O)N(S(=O)(=O)c2ccc(C#N)cc2)c2ccc(C#N)cc21 (stereo not shown) is 7.00 to 8.00

CCOc1ccccc1C1(NC(=O)N2CCN(c3cnccn3)CC2)C(=O)N(S(=O)(=O)c2ccc(OC)cc2OC)c2ccc(C#N)cc21 (stereo not shown) has a reported pKi of 7.00 to 8.00

The value of pKi measured for the compound CCOc1ccccc1C1(NC(=O)N2CCN(c3ncccc3C)CC2)C(=O)N(S(=O)(=O)c2ccc(OC)cc2OC)c2ccc(C#N)cc21 (stereo not shown) turned out to be 7.00 to 8.00

compound CCOc1ccccc1C1(NC(=O)N2CCN(c3ccncc3)CC2)C(=O)N(S(=O)(=O)c2ccc(C)cc2OC)c2ccc(C#N)cc21 (stereo not shown) , pKi observed: > 8.00

// field: pKi; key: CCOc1ccccc1C1(OC(=O)N2CCN(c3ccncc3)CC2)C(=O)N(S(=O)(=O)c2ccccc2F)c2ccc(C#N)cc21 (stereo not shown) ; value = 7.00 to 8.00

GET /value?item= CCOc1ccccc1C1(OC(=O)N2CCN(c3nccs3)CC2)C(=O)N(S(=O)(=O)c2ccc(C#N)cc2)c2ccc(C#N)cc21 (stereo not shown) &field=pKi returns 7.00 to 8.00

CCOc1ccccc1C1(OC(=O)N2CCN(c3cc(C#N)ccn3)CC2)C(=O)N(S(=O)(=O)c2ccc(OC)cc2OC)c2ccc(C#N)cc21 (stereo not shown) yielded pKi of > 8.00

// sample CCOc1ccccc1C1(NC(=O)N2CCN(c3ccc(C#N)cn3)CC2)C(=O)N(S(=O)(=O)c2ccccc2)c2ccc(C#N)cc21 (stereo not shown) , its pKi was 7.00 to 8.00

# compound CCOc1ccccc1C1(OC(=O)N2CCN(c3ncccn3)CC2)C(=O)N(S(=O)(=O)c2ccc(OC)cc2OC)c2ccc(C#N)cc21 (stereo not shown) ; its pKi = 7.00 to 8.00

Entry under test: CCOc1ccccc1C1(NC(=O)N2CCN(c3nccs3)CC2)C(=O)N(S(=O)(=O)c2ccc(OC)cc2OC)c2ccc(C#N)cc21 (stereo not shown) . Its pKi was > 8.00

Item: CCOc1ccccc1C1(OC(=O)N2CCN(c3ccncc3)CC2)C(=O)N(S(=O)(=O)c2ccc(F)cc2F)c2ccc(C#N)cc21 (stereo not shown) | pKi: 7.00 to 8.00

The value of pKi measured for the compound CCOc1ccccc1C1(NC(=O)N2CCN(c3ncccn3)CC2)C(=O)N(S(=O)(=O)c2ccc(OC)cc2OC)c2ccc(C#N)cc21 (stereo not shown) turned out to be > 8.00
